# assayedTarget: ligand binding domain of human FXR (Homo sapiens (Human))
# Sequence (Q96RI1 262-486): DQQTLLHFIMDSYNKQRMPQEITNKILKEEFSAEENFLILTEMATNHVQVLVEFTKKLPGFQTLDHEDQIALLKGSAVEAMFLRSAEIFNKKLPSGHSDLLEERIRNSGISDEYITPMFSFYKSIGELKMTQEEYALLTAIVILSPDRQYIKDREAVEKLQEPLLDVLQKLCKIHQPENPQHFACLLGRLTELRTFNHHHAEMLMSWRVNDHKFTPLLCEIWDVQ
# assayProtocol: FXR ligand binding assay (LanthaScreen TR-FRET, SRC2-2 peptide recruitment)
# conditionSet: -log EC50, concentration required to produce 50% activation
assayEndpoint: pEC50

| compound | assayEndpoint | number |
| --- | --- | --- |
| O=C(O)c1ccc(N2C(=O)[C@@H]3C[C@H]2C[C@H]3OCc2c(-c3c(F)cccc3Cl)noc2C2CC2)cc1 | pEC50 | 8.2 |
| O=C(O)c1cc(F)c2nc(N3C[C@@H]4C[C@H]3C[C@H]4OCc3c(-c4ccccc4O)noc3C3CC3)sc2c1 | pEC50 | 6.1 |
| O=C(NS(=O)(=O)C1CCOC1)c1ccc(N2C[C@@H]3C[C@H]2C[C@H]3OCc2c(-c3c(Cl)cccc3Cl)noc2C2CC2)cc1 (stereo partly shown) | pEC50 | 8.9 |
| CCOc1cc(C(=O)O)cc2sc(N3C[C@@H]4C[C@H]3C[C@H]4OC(=O)c3c(-c4c(Cl)cccc4Cl)noc3C3CC3)nc12 | pEC50 | 7.6 |
| O=C(NS(=O)(=O)CCCO)c1ccc(N2C[C@@H]3C[C@H]2C[C@H]3OCc2c(-c3c(Cl)cccc3Cl)noc2C2CC2)cc1 | pEC50 | 8.6 |
| O=C(O)c1ccc(N2C(=O)[C@@H]3C[C@H]2C[C@H]3OCc2c(-c3c(Cl)cccc3Cl)noc2C2CC2)c(F)c1 | pEC50 | 7.4 |
| O=C(O)c1cc(OC2CC2)c2nc(N3C[C@@H]4C[C@H]3C[C@H]4OCc3c(C4CCC5(CC4)CC5)noc3C3CC3)sc2c1 | pEC50 | 7.7 |
| O=C(O)c1cc(F)c2nc(N3C[C@H]4C[C@@H]3[C@H](OC(=O)c3c(-c5c(Cl)cccc5Cl)noc3C3CC3)C4)sc2c1 | pEC50 | 8.7 |
| O=C(O)C1(c2ccc(N3C[C@@H]4C[C@H]3C[C@H]4OCc3c(-c4c(Cl)cccc4Cl)noc3C3CC3)cc2)CC1 | pEC50 | 8.2 |
| CC(C)(Cc1ccc(N2C[C@@H]3C[C@H]2C[C@H]3OCc2c(-c3c(Cl)cccc3Cl)noc2C2CC2)cc1F)C(=O)O | pEC50 | 7.6 |
| O=C(O)c1cc(C2CCOCC2)c2nc(N3C[C@@H]4C[C@H]3C[C@H]4OCc3c(-c4c(Cl)cccc4Cl)noc3C3CC3)sc2c1 | pEC50 | 9 |
| O=C(NS(=O)(=O)CC1CCOC1)c1ccc(N2C(=O)[C@@H]3C[C@H]2C[C@H]3OCc2c(-c3c(Cl)cccc3Cl)noc2C2CC2)cc1F (stereo partly shown) | pEC50 | 8.8 |
| O=C(O)c1ccc(N2C[C@@H]3C[C@H]2C[C@H]3OCc2c(-c3c(Cl)cccc3Cl)noc2C2CC2)cc1 | pEC50 | 8.8 |
